In this section we review reported TP values for a set of compounds.
Species on record: Rattus norvegicus
Test: Open TG-GATES - Regimen: Daily Repeat
Type: toxicity, organism-based, Sprague-Dawley
Parameters: regimen Daily Repeat, gender Male, age 6 weeks
Conditions: in vivo, po, 10 mg/kg, […], tissue Plasma, route gavage, dose level Low, time 7 day
Metric: TP

CN(C)CCCN1c2ccccc2CCc2ccccc21 :: 5.9 g/dL
CN(C)CCN(Cc1cccs1)c1ccccn1 :: 5.7 g/dL
CC1=C(/C=C/C(C)=C/C=C/C(C)=C/CO)C(C)(C)CCC1 :: 5.7 g/dL
CC(C)OC(=O)C(C)(C)Oc1ccc(C(=O)c2ccc(Cl)cc2)cc1 [FENOFIBRATE] :: 5.8 g/dL

----------
Species on record: Rattus norvegicus
Assay: Open TG-GATES - Regimen: Daily Repeat
Assay type: toxicity, organism-based, Sprague-Dawley
Parameters: regimen Daily Repeat, gender Male, age 6 weeks
Conditions: in vivo, po, 1000 mg/kg, […], tissue Plasma, route gavage, dose level High, time 14 day
Metric: TBIL (mg/dL)

CC(C)OC(=O)C(C)(C)Oc1ccc(C(=O)c2ccc(Cl)cc2)cc1 [FENOFIBRATE] :: 0.052
CCOC(=O)CCC(=O)O[C@H]1[C@H](O[C@@H]2[C@@H](C)[C@H](O[C@H]3C[C@@](C)(OC)[C@@H](O)[C@H](C)O3)[C@@H](C)C(=O)O[C@H](CC)[C@@](C)(O)[C@H](O)[C@@H](C)C(=O)[C@H](C)C[C@@]2(C)O)O[C@H](C)C[C@@H]1N(C)C [ERYTHROMYCIN ETHYLSUCCINATE] :: 0.006
COC1=CC(=O)C[C@@H](C)[C@]12Oc1c(Cl)c(OC)cc(OC)c1C2=O [GRISEOFULVIN] :: 0.1
CCOc1ccc(NC(=O)CC(C)O)cc1 (stereo unspecified) [BUCETIN] :: 0.1
NC(N)=Nc1nc(CSCCC(N)=NS(N)(=O)=O)cs1 [FAMOTIDINE] :: 0.1
COc1ccc2[nH]c([S+]([O-])Cc3ncc(C)c(OC)c3C)nc2c1 (stereo unspecified) [OMEPRAZOLE] :: 0.1

----------
In this section we review reported Eos values for a set of compounds.
Species: Rattus norvegicus
Assay: Open TG-GATES - Regimen: Daily Repeat
Assay type: toxicity, organism-based, Sprague-Dawley
Set-up: regimen Daily Repeat, gender Male, age 6 weeks
Details: in vivo, po, 1000 mg/kg, […], tissue Blood, route gavage, dose level High, time 28 day
Metric: Eos (%)

CC(C)OC(=O)C(C)(C)Oc1ccc(C(=O)c2ccc(Cl)cc2)cc1 [FENOFIBRATE] :: 1.2
CCOc1ccc(NC(=O)CC(C)O)cc1 (stereo unspecified) [BUCETIN] :: 1.2
NC(N)=Nc1nc(CSCCC(N)=NS(N)(=O)=O)cs1 [FAMOTIDINE] :: 1.2
COC1=CC(=O)C[C@@H](C)[C@]12Oc1c(Cl)c(OC)cc(OC)c1C2=O [GRISEOFULVIN] :: 1
CCOC(=O)CCC(=O)O[C@H]1[C@H](O[C@@H]2[C@@H](C)[C@H](O[C@H]3C[C@@](C)(OC)[C@@H](O)[C@H](C)O3)[C@@H](C)C(=O)O[C@H](CC)[C@@](C)(O)[C@H](O)[C@@H](C)C(=O)[C@H](C)C[C@@]2(C)O)O[C@H](C)C[C@@H]1N(C)C [ERYTHROMYCIN ETHYLSUCCINATE] :: 1
COc1ccc2[nH]c([S+]([O-])Cc3ncc(C)c(OC)c3C)nc2c1 (stereo unspecified) [OMEPRAZOLE] :: 0.6
